- Procedure text: In vitro microsomal stability, rat
- Format: in vitro ADME
- Settings: rat liver microsomes, NADPH, 30 min
Recorded % of compound remaining when incubated in rat liver microsomes with NADPH by entry
Test readout: % of compound remaining when incubated in rat liver microsomes with NADPH (%)

{"Molecule": "CC(C)(C)C[C@H]1N[C@@H](C(=O)NCC[C@H](O)CNC(C)(C)C)[C@H](c2cccc(Cl)c2)[C@@]12C(=O)Nc1cc(Cl)c(F)cc12 [MI-519-24]", "Result number": 68.24}
{"Molecule": "CC(O)C(O)CCNC(=O)[C@@H]1N[C@H](CC(C)(C)C)[C@]2(C(=O)Nc3cc(Cl)c(F)cc32)[C@H]1c1cccc(Cl)c1 (stereo partly shown) [MI-519-31]", "Result number": 42.91}
{"Molecule": "CC(C)(C)C[C@H]1N[C@@H](C(=O)NCC[C@H](O)CN2CC[C@@H](O)C2)[C@H](c2cccc(Cl)c2)[C@@]12C(=O)Nc1cc(Cl)c(F)cc12 [MI-519-29]", "Result number": 70.75}
{"Molecule": "CC(C)(C)C[C@H]1N[C@@H](C(=O)N[C@H]2CC[C@@H](O)C2)[C@H](c2cccc(Cl)c2F)[C@@]12C(=O)Nc1cc(Cl)ccc12 [MI-519-51]", "Result number": 0.00}
